Provide the recorded EC50 for the entries that follow.
# system: Heat shock factor protein 1 (Mus musculus)
# Sequence (P38532 whole entry): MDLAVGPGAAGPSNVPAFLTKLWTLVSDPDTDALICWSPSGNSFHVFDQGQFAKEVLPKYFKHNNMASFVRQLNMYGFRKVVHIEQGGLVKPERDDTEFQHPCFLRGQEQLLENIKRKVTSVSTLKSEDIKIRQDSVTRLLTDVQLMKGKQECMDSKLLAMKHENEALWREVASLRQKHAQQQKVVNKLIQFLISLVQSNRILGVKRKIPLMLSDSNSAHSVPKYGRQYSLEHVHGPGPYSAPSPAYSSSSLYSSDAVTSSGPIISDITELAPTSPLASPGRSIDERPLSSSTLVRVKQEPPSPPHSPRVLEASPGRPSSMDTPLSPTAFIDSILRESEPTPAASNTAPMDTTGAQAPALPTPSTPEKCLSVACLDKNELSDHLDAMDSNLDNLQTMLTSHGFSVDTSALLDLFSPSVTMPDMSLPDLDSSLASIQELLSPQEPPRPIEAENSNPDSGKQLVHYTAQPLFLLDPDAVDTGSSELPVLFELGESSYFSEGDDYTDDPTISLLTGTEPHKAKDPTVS
# procedure.text: inhibition of MG132-induced HSE-luciferase signal, confirmation, cell-based, NIH3T3, luminescence, dose retest (AID 2382);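 also: NIH3T3 fibroblasts with HSF1-driven luciferase reporter stressed by proteasome inhibitor MG132; luminescence from HSF1-driven luciferase expression after 8 hours of MG132 stress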
# Assay type: functional
Calls of active or inactive are those of the source. Rule as the data show it: actives have a measured EC50 and inactives only a lower limit.

Q) # query: EC50 of entry `CC(C)(C)c1ccc(/C=C2\SC(=O)N(CCNC(=O)c3cccc(S(=O)(=O)N4CCOCC4)c3)C2=O)cc1`
A) 2.43 µM (active)

Q) # query: EC50 of entry `Nn1cnnc1N/N=C/c1ccc(Cl)c([N+](=O)[O-])c1`
A) 10.2 µM (active)

Q) # query: EC50 of entry `COC(=O)c1ccc(NC(=O)NC2CCCCC2)cc1`
A) > 195 µM (not active)

Q) # query: EC50 of entry `C/[N+]([O-])=C\C1C(=O)CC(C)(C)CC1=O`
A) > 195 µM (not active)

====

Provide the recorded EC50 for the entries that follow.
# system: Protein RecA (Mycobacterium tuberculosis, UniProt P9WHJ3)
# Sequence (P9WHJ3 whole entry): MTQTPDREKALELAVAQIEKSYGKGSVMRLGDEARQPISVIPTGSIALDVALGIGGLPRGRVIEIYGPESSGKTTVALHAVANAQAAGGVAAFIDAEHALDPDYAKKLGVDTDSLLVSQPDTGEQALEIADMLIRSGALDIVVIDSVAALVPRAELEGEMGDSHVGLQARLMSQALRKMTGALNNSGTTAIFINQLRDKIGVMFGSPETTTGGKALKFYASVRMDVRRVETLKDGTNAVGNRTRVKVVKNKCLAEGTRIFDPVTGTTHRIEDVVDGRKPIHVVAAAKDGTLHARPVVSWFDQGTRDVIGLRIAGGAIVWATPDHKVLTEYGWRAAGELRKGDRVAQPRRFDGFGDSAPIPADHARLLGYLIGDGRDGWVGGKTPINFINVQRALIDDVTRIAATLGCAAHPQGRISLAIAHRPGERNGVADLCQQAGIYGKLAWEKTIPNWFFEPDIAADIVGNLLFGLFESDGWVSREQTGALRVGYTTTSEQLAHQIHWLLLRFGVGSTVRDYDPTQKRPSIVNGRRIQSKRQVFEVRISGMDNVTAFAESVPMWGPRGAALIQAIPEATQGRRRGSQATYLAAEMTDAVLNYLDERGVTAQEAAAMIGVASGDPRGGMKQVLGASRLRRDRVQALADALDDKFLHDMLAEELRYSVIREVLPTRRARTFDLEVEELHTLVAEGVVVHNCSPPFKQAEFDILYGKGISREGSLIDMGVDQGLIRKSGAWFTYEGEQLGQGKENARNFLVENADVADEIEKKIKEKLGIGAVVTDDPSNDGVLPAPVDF
# procedure.text: Fluorescence Cell-Free Homogeneous Dose Retest to Identify Inhibitors of RecA-Intein Splicing Activity. [Related pubchem assays (depositor defined):AID2097, AID2223, AID489010, AID492950]
# Type: functional
Activity calls are given as the source filed them. Cut-off read from the data, not from the text of the source: actives have a measured EC50 and inactives only a lower limit.

Q) # query: EC50 of entry `Cc1ccc(NC(=O)COc2cccc(/C=C3\SC(=S)N(CCC(=O)O)C3=O)c2)cc1Cl`
A) 19.1 µM (active)

Q) # query: EC50 of entry `CCc1ccccc1N1C(=O)C(Cl)=C(N2CCOCC2)C1=O`
A) 4.01 µM (active)

Q) # query: EC50 of entry `CN1C=C/C(=C\c2cc[n+](C)c3ccccc23)c2ccccc21`
A) 1.48 µM (active)

Q) # query: EC50 of entry `O=C(c1c[nH]c(C(=O)C(Cl)(Cl)Cl)c1)c1ccccc1Br`
A) 6.33 µM (active)

Q) # query: EC50 of entry `O=[N+]([O-])c1ccc(Oc2ccc(F)cc2)c2ccncc12`
A) 1.4 µM (active)
